testSummary: In vitro disulfide cleavage and immolation by incubation with cysteine or glutathione (LC/MS)
Format: physicochemical
assayConditions: 30 μM cysteine, pH 7.0, 37° C., 4 h
Percentage of all products values for the molecules below.

molecule	Percentage of all products [%]
C=C1C[C@H]2C=Nc3cc(OCCCCCOc4cc5c(cc4OC)C(=O)N4CC(=C)C[C@H]4C(O)N5C(=O)OCC4(SSC[C@H](N)C(=O)O)CC4)c(OC)cc3C(=O)N2C1 (stereo partly drawn)	71.1
C=C1C[C@H]2C=Nc3cc(OCCCCCOc4cc5c(cc4OC)C(=O)N4CC(=C)C[C@H]4[C@H](O)N5C(=O)OCC4(S)CC4)c(OC)cc3C(=O)N2C1	9.7
C=C1C[C@H]2C=Nc3cc(OCCCCCOc4cc5c(cc4OC)C(=O)N4CC(=C)C[C@H]4C(O)N5C(=O)OCC4(S)CCC4)c(OC)cc3C(=O)N2C1 (stereo partly drawn)	1.1
C=C1CC2C=Nc3cc(OCCCCCOc4cc5c(cc4OC)C(=O)N4CC(=C)CC4C(O)N5C(=O)OCC(C)SSCC(N)C(=O)O)c(OC)cc3C(=O)N2C1 (stereo not drawn)	79.9
C=C1CC2C=Nc3cc(OCCCCCOc4cc5c(cc4OC)C(=O)N4CC(=C)CC4C(O)N5C(=O)OCC(C)S)c(OC)cc3C(=O)N2C1 (stereo not drawn)	1.7
C=C1CC2C=Nc3cc(OCCCCCOc4cc5c(cc4OC)C(=O)N4CC(=C)CC4C(O)N5C(=O)OCC(C)SSc4ccc([N+](=O)[O-])cn4)c(OC)cc3C(=O)N2C1 (stereo not drawn)	7.9

###

testSummary: In vitro disulfide cleavage and immolation by incubation with cysteine or glutathione (LC/MS)
Assay type: physicochemical
assayConditions: 200 μM cysteine, pH 7.0, 37° C., 1 h
// map Percentage of all products to label using bucket 1 = under 6%, bucket 2 = from 6% up to 20%, bucket 3 = 20% and over

compound	labelClass
C=C1C[C@H]2C=Nc3cc(OCCCCCOc4cc5c(cc4OC)C(=O)N4CC(=C)C[C@H]4C(O)N5C(=O)OCC4(SSC[C@H](N)C(=O)O)CCC4)c(OC)cc3C(=O)N2C1 (stereo partly drawn) [Compound 12a]	bucket 3
C=C1C[C@H]2C=Nc3cc(OCCCCCOc4cc5c(cc4OC)C(=O)N4CC(=C)C[C@H]4C(O)N5C(=O)OCC4(S)CCC4)c(OC)cc3C(=O)N2C1 (stereo partly drawn) [Compound 13]	bucket 1
C=C1CC2C=Nc3cc(OCCCCCOc4cc5c(cc4OC)C(=O)N4CC(=C)CC4C(O)N5C(=O)OCC(C)SSCC(N)C(=O)O)c(OC)cc3C(=O)N2C1 (stereo not drawn) [Compound 3a]	bucket 1
C=C1C[C@H]2C=Nc3cc(OCCCCCOc4cc5c(cc4OC)C(=O)N4CC(=C)C[C@H]4C(O)N5C(=O)OCC4(SSc5ccc([N+](=O)[O-])cn5)CC4)c(OC)cc3C(=O)N2C1 (stereo partly drawn) [Compound 2]	bucket 2
C=C1CC2C=Nc3cc(OCCCCCOc4cc5c(cc4OC)C(=O)N4CC(=C)CC4C(O)N5C(=O)OCC(C)S)c(OC)cc3C(=O)N2C1 (stereo not drawn) [Compound 6]	bucket 2
C=C1C[C@H]2C=Nc3cc(OCCCCCOc4cc5c(cc4OC)C(=O)N4CC(=C)C[C@H]4[C@H](O)N5C(=O)OCC4(S)CC4)c(OC)cc3C(=O)N2C1 [Compound 7]	bucket 3
C=C1CC2C=Nc3cc(OCCCCCOc4cc5c(cc4OC)C(=O)N4CC(=C)CC4C(O)N5C(=O)OCC(C)SSc4ccc([N+](=O)[O-])cn4)c(OC)cc3C(=O)N2C1 (stereo not drawn) [Compound 1]	bucket 1
C=C1C[C@H]2C=Nc3cc(OCCCCCOc4cc5c(cc4OC)C(=O)N4CC(=C)C[C@H]4C(O)N5C(=O)OCC4(SSc5ccc([N+](=O)[O-])cn5)CCC4)c(OC)cc3C(=O)N2C1 (stereo partly drawn) [Compound 11]	bucket 2
C=C1C[C@H]2C=Nc3cc(OCCCCCOc4cc5c(cc4OC)C(=O)N4CC(=C)C[C@H]4C(O)N5C(=O)OCC4(SSC[C@H](N)C(=O)O)CC4)c(OC)cc3C(=O)N2C1 (stereo partly drawn) [Compound 4a]	bucket 3

###

testSummary: In vitro disulfide cleavage and immolation by incubation with cysteine or glutathione (LC/MS)
Format: physicochemical
assayConditions: 30 μM cysteine, pH 7.0, 37° C., 1 h
Kindly apply the following: yes (1) if Percentage of all products is less than 5%, no (0) in every other case.

molecule	labelClass
C=C1C[C@H]2C=Nc3cc(OCCCCCOc4cc5c(cc4OC)C(=O)N4CC(=C)C[C@H]4C(O)N5C(=O)OCC4(SSC[C@H](N)C(=O)O)CCC4)c(OC)cc3C(=O)N2C1 (stereo partly drawn) [Compound 12a]	no (0)
C=C1CC2C=Nc3cc(OCCCCCOc4cc5c(cc4OC)C(=O)N4CC(=C)CC4C(O)N5C(=O)OCC(C)SSCC(N)C(=O)O)c(OC)cc3C(=O)N2C1 (stereo not drawn)	no (0)
C=C1C[C@H]2C=Nc3cc(OCCCCCOc4cc5c(cc4OC)C(=O)N4CC(=C)C[C@H]4C(O)N5C(=O)OCC4(SSc5ccc([N+](=O)[O-])cn5)CC4)c(OC)cc3C(=O)N2C1 (stereo partly drawn)	no (0)
C=C1CC2C=Nc3cc(OCCCCCOc4cc5c(cc4OC)C(=O)N4CC(=C)CC4C(O)N5C(=O)OCC(C)SSc4ccc([N+](=O)[O-])cn4)c(OC)cc3C(=O)N2C1 (stereo not drawn)	no (0)
C=C1CC2C=Nc3cc(OCCCCCOc4cc5c(cc4OC)C(=O)N4CC(=C)CC4C(O)N5C(=O)OCC(C)S)c(OC)cc3C(=O)N2C1 (stereo not drawn)	yes (1)
C=C1C[C@H]2C=Nc3cc(OCCCCCOc4cc5c(cc4OC)C(=O)N4CC(=C)C[C@H]4C(O)N5C(=O)OCC4(S)CCC4)c(OC)cc3C(=O)N2C1 (stereo partly drawn)	yes (1)
C=C1C[C@H]2C=Nc3cc(OCCCCCOc4cc5c(cc4OC)C(=O)N4CC(=C)C[C@H]4C(O)N5C(=O)OCC4(SSC[C@H](N)C(=O)O)CC4)c(OC)cc3C(=O)N2C1 (stereo partly drawn)	no (0)
C=C1C[C@H]2C=Nc3cc(OCCCCCOc4cc5c(cc4OC)C(=O)N4CC(=C)C[C@H]4C(O)N5C(=O)OCC4(SSc5ccc([N+](=O)[O-])cn5)CCC4)c(OC)cc3C(=O)N2C1 (stereo partly drawn)	no (0)

###

AntP % P (penetratin (AntP) peptide % product) values for the compounds below.
measurementTarget: penetratin (AntP) peptide (Drosophila melanogaster, UniProt P02833)
Construct: C-terminal amide (CONH2); made in house; host or cells: chemical synthesis (Fmoc solid-phase peptide synthesis)
testSummary: Conjugation of activated disulfide-MMAE molecules to penetratin (AntP) peptide (% Product)
assayConditions: peptide 25 uM, disulfide MMAE 5 equivalents, 75 mM Tris pH 8.5 and 10% DMF, ~16 hours at room temperature, UV peak area
Where a SMILES comes first, the peptide text is derived from it. [ ]: non-standard residue; d: D form. The star is where a group is joined. Dolaproine = CO[C@@H]([C@@H]1CCCN1)[C@@H](C)C(=O)O; Dil = CC[C@H](C)[C@H](NC)[C@@H](CC(=O)O)OC; X7 = CC(C)(COC(=O)*)SSc1nc2ccccc2[nH]1; X2 = C[C@@H](N*)[C@@H](O)c1ccccc1; X20 = Cn1cnnc1SSC(C)(C)COC(=O)*; NMeV = CN[C@H](C(=O)O)C(C)C
recordedMetric: AntP % P (penetratin (AntP) peptide % product) (%)

compound	unitText	observedResult
CC[C@H](C)[C@@H]([C@@H](CC(=O)N1CCC[C@H]1[C@H](OC)[C@@H](C)C(=O)N[C@H](C)[C@@H](O)c1ccccc1)OC)N(C)C(=O)[C@@H](NC(=O)[C@H](C(C)C)N(C)C(=O)OCC(C)(C)SSc1nc2ccccc2[nH]1)C(C)C (X7-[NMeV]V[Dil][Dolaproine]-X2)	%	18
CC[C@H](C)[C@@H]([C@@H](CC(=O)N1CCC[C@H]1[C@H](OC)[C@@H](C)C(=O)N[C@H](C)[C@@H](O)c1ccccc1)OC)N(C)C(=O)[C@@H](NC(=O)[C@H](C(C)C)N(C)C(=O)OCC(C)(C)SSc1nncn1C)C(C)C (X20-[NMeV]V[Dil][Dolaproine]-X2)	%	17

###

testSummary: In vitro disulfide cleavage and immolation by incubation with cysteine or glutathione (LC/MS)
Assay type: physicochemical
assayConditions: 4 mM GSH, pH 7.0, 37° C., 1 h
recordedMetric: Percentage of all products (%)

compound	observedResult
C=C1C[C@H]2C=Nc3cc(OCCCCCOc4cc5c(cc4OC)C(=O)N4CC(=C)C[C@H]4[C@H](O)N5C(=O)OCC4(S)CC4)c(OC)cc3C(=O)N2C1	80.8
C=C1CC2C=Nc3cc(OCCCCCOc4cc5c(cc4OC)C(=O)N4CC(=C)CC4C(O)N5C(=O)OCC(C)SSCC(NC(=O)CCC(N)C(=O)O)C(=O)NCC(=O)O)c(OC)cc3C(=O)N2C1 (centres unmarked)	0.3
C=C1C[C@H]2C=Nc3cc(OCCCCCOc4cc5c(cc4OC)C(=O)N4CC(=C)C[C@H]4C(O)N5C(=O)OCC4(SSc5ccc([N+](=O)[O-])cn5)CCC4)c(OC)cc3C(=O)N2C1 (some centres unmarked)	9.1
C=C1C[C@H]2C=Nc3cc(OCCCCCOc4cc5c(cc4OC)C(=O)N4CC(=C)C[C@H]4C(O)N5C(=O)OCC4(SSc5ccc([N+](=O)[O-])cn5)CC4)c(OC)cc3C(=O)N2C1 (some centres unmarked)	17.9
C=C1CC2C=Nc3cc(OCCCCCOc4cc5c(cc4OC)C(=O)N4CC(=C)CC4C(O)N5C(=O)OCC(C)SSc4ccc([N+](=O)[O-])cn4)c(OC)cc3C(=O)N2C1 (centres unmarked)	9.1
